Entry source: patent US12595248B2

Exercise: state measured pEC50 for each of the compounds provided.
Molecular target: PRMT5-MEP50 enzyme complex (Homo sapiens, UniProt O14744)
Construct: Full-length (FL)-PRMT5-MEP50 enzyme complex (recombinant proteins from baculovirus-transfected Sf21 cells: FL-PRMT5; MW=73837 kDa and FL-MEP50; MW=38614); made in house; host or cells: baculovirus-transfected Sf21 cells
Sequence (O14744 whole entry): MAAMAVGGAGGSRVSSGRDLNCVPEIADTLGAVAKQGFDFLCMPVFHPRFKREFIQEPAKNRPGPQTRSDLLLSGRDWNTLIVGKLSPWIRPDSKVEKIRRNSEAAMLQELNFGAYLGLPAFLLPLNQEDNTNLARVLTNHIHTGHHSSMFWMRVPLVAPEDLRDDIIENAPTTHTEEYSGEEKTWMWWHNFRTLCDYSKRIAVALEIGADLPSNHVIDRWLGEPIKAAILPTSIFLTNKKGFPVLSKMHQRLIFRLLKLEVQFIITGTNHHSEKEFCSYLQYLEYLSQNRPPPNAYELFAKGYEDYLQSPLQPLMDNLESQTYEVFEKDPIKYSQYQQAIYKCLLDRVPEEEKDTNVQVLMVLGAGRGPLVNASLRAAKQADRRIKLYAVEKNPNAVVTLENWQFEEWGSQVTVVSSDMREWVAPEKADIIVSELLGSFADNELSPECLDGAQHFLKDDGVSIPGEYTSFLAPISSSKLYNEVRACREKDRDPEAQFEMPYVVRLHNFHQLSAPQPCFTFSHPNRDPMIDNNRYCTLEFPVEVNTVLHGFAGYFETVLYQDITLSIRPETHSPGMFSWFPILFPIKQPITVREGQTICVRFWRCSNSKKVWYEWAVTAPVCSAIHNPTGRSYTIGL
Sequence (Q9BQA1 whole entry partner): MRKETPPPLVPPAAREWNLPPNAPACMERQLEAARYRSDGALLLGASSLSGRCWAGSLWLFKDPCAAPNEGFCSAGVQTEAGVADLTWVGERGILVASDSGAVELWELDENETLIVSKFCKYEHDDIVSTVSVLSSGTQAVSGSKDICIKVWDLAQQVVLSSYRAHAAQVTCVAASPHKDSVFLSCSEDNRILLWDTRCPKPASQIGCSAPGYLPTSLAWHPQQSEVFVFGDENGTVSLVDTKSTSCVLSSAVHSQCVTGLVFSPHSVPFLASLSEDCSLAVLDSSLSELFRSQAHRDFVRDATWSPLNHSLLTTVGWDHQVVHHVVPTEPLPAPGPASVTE
Assay: PRMT5-MEP50 Enzyme Methylation Assay (Version B)
Type: biochemical
Settings: second of two EC50s: 7 parameters biphasic model; read-out: Enzyme Methylation Assay Version B (EC50_2)
Method: PRMT5-MEP50 Enzyme Methylation Assay (Version B) PRMT5-MEP50 biochemical assay is a direct measurement of the methylation activity of the enzyme complex on a short peptide substrate derived from the N-terminus of H4 histone. Methylation experiment was performed with recombinant PRMT5-MEP50 protein complex. The assessment of inhibitory effect (EC50) of small molecules was measured by the effectiveness of the compounds to inhibit this reaction. […]
One number for each entry, as −log10 of the molar value.

Illustrative cases are given below, each with its answer.
compound	pEC50
O=C(c1cc2n(n1)CCN(CC(F)(F)F)C2)N1CC[C@H](N2CCc3ccccc3C2)[C@@H](O)C1	4.47
CCOc1cc(C(=O)N2C3CCC2COC3)ccc1C(=O)N1CC[C@H](N2CCc3ccccc3C2)[C@@H](O)C1	5.33
CC(=O)N1CCC(Nc2cc(C(=O)N3CCC(N4CCc5ccccc5C4)C(O)C3C)ccn2)CC1 (single isomer, unassigned) [Example 21]	4.59

// for each compound in input: emit pEC50
1. CC(=O)N1CCC(Nc2cc(C(=O)N3CC[C@H](N4CCc5ccccc5C4)[C@@H](O)C3)c(F)cn2)C(F)(F)C1 (single isomer, unassigned) [Example 87]
2. CC1(C)CC(=O)Nc2cc(C(=O)N3CC[C@@H](N4CCc5ccccc5C4)[C@H](O)C3)ccc21
3. CS(=O)(=O)N1CCC(Nc2cc(C(=O)N3CC[C@H](N4CCc5ccccc5C4)[C@@H](O)C3)c(F)cn2)CC1
4. COc1cnc(NC2CCN(C(C)=O)CC2)cc1C(=O)N1CC[C@H](N2CCc3ccccc3C2)[C@@H](O)C1
5. CCC1Oc2ccc(C(=O)N3CC[C@H](N4CCc5ccccc5C4)[C@@H](O)C3)cc2NC1=O (single isomer, unassigned) [Example 11]
6. Cc1ccc2c(c1)CCN([C@H]1CCN(C(=O)c3ccc(OCC(F)(F)F)nc3)C[C@@H]1O)C2
7. O=C(c1ccc(C(=O)N2C3CCC2COC3)cc1)N1CC[C@H](N2CCc3ccccc3C2)[C@@H](O)C1
8. O=C(c1cn2c(n1)CCC(C(F)(F)F)C2)N1CC[C@H](N2CCc3ccccc3C2)[C@@H](O)C1 (single isomer, unassigned) [Example 82]

Result:
1: 5.14; 2: 4.40; 3: 5.99; 4: 5.69; 5: 5.97; 6: 4.54; 7: 5.59; 8: 5.21
